# System tested: dopamine D2 receptors (Bos taurus, UniProt P20288)
# Construct: membranes derived from bovine caudate nuclei assay were employed; from tissue; host or cells: bovine caudate nuclei membranes (brains from a local slaughterhouse)
# Sequence (P20288 whole entry): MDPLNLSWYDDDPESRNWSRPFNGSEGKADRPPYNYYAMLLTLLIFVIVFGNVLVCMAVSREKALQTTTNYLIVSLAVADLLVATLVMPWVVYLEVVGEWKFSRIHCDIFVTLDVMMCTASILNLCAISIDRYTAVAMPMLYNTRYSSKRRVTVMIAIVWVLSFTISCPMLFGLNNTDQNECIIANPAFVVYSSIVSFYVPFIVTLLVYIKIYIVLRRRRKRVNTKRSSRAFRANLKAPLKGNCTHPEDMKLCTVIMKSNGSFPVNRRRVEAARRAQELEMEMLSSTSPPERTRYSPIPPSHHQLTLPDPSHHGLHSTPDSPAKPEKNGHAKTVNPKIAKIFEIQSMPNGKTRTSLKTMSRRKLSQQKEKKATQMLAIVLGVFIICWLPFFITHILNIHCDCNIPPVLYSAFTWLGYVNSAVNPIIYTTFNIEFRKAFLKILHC
# Assay notes: Radioligand binding to dopamine D2 receptors ([3H]-Spiperone, bovine caudate nuclei membranes)
# Recorded conditions: [3H]-Spiperone; bovine caudate membranes; 75 minutes at room temperature; 30 nM ketaserin; read-out: RECEPTOR AFFINITIES Ki, D2 (KL)
Property: Ki; scope: individual compounds
Property: Ki (nM)

>>> experimental_result("CCCN(CCn1c(C)ccc1C)C1CCc2c(O)cccc2C1 (centres unmarked)")
100
>>> experimental_result("CCCN(CCN1C(=O)c2ccccc2C1=O)C1CCc2c(O)cccc2C1 (centres unmarked)")
1260
>>> experimental_result("CCCN(CCCN1C(=O)c2ccccc2C1=O)C1CCc2c(O)cccc2C1 (centres unmarked)")
1260
>>> experimental_result("CCCN(CCN1Cc2ccccc2C1)C1CCc2c(O)cccc2C1 (centres unmarked)")
52
>>> experimental_result("CCCN(CCCN1Cc2ccccc2C1)C1CCc2c(O)cccc2C1 (centres unmarked)")
720

src = patent US5118704A
